Tested on: LXRa:RXRa (NR concentration 270 nM, RXRa partner concentration 90 nM)
Test: PBM binding z-score (relative to random genomic background probes); higher = stronger binding; sequences stand for … in GC…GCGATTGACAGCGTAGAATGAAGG
experimentalReadout: PBM binding z-score
Returns: the value as a bare number; no unit string appended.

- entrySequence: "GCTGCTGGGTCAGGTTGGTCAGCTAACGGGTACG"
  PBM binding z-score: 0.222
- entrySequence: "CGTCCAAGGGCATAGGAGGTCAGTGAAGACAGAT"
  PBM binding z-score: 5.05
- entrySequence: "CCTATTAGTTGACCATAAGGGCCACCGAAGCTCG"
  PBM binding z-score: 0.041
- entrySequence: "AGAATGAGGTTACCAAAGATCAGCGAAACGCTTG"
  PBM binding z-score: 6.09
- entrySequence: "CGTCAAAGTTCAACTAAGGTAACGCAAAGCACGC"
  PBM binding z-score: 6.31
- entrySequence: "TAGCCTAGGTCATGCTGGCCAGTATAGTGTCGGC"
  PBM binding z-score: 3.03
- entrySequence: "GGAACGAGGGCAAGTTGATTGCAGAGTTTGATGG"
  PBM binding z-score: 0.697
- entrySequence: "CCTAGCAGGCCAGGGGCACTCAAGCATTTCGCTT"
  PBM binding z-score: -0.659
- entrySequence: "GCTGCTAGGTCTGGTTGGTCAGCTAACGGGTACG"
  PBM binding z-score: -0.65
- entrySequence: "GCTAGTTGGTCAGTAAAAGGTCACATACCGGTCG"
  PBM binding z-score: 4.16

Now turn to the next sequence.
Inquiry: Please report the recorded PBM binding z-score for CTCGAAAGGTCGTGCTCAGGTGAGTAGACCAAAC .
Reply text: 3.86

* * *

Tested on: RARg homodimer (NR concentration 270 nM)
Assay: PBM binding z-score (relative to random genomic background probes); higher = stronger binding; sequences stand for … in GC…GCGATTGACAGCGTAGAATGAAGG
Would you please tag the item rule met when its PBM binding z-score is 3 or above, and rule not met when it is below?

Known results for sequences:
- entrySequence: "ACTAGTTGGTCAGCTGAGATCACACACAATTCGG"
  categoryLabel: "rule not met"
- entrySequence: "CGTCAAAGTACAACTAAGGTAACGTAAAGCACGC"
  categoryLabel: "rule not met"
- entrySequence: "CCTACTGGGCCTCGAAAGGTCATTGATTCAGTGA"
  categoryLabel: "rule met"
- entrySequence: "AATACAGGGTCATCGTAGACCAGAGTACGCACAG"
  categoryLabel: "rule met"
- entrySequence: "AATGCAGGGTCACTAGGCCAGAGTAGGTACGAAT"
  categoryLabel: "rule met"

Inquiry: Is it the case that GCGACTGGGGCATCAGCAAGTTACCATAACTTAA has PBM binding z-score reaching or exceeding 3?
Reply text: rule not met

* * *

Tested on: PXR:RXRa (NR concentration 270 nM, RXRa partner concentration 90 nM)
Assay: PBM binding z-score (relative to random genomic background probes); higher = stronger binding; sequences stand for … in GC…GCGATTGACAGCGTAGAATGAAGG
Would you please tag the item Y when its PBM binding z-score is 0.5 or above, and N when it is below?

- entrySequence: "ATACCAAGGTGATCGTGAAGTCGTTGATACTAAC"
  experimentalTarget: "PXR:RXRa (NR concentration 270 nM, RXRa partner concentration 90 nM)"
  categoryLabel: "N"

Inquiry: Is it the case that CCGACTGGGGCAGAAGGTTACCATAAGCCAGCCC has PBM binding z-score reaching or exceeding 0.5?
Reply text: N

Inquiry: Can you handle TCTGCTAGGTCGGTTGGTCAGCTAACGAGCTGCC next?
Reply text: N

Inquiry: Can you handle CCTAGCAGGCCAATCTGGTTCACTCAAGGCTTGA next?
Reply text: Y

Inquiry: Can you handle CATACGGGGTCAGCTAGGCCAGAGTAGGGACGGC next?
Reply text: Y

* * *

System: RXRa homodimer (NR concentration 180 nM)
Assay: PBM binding z-score (relative to random genomic background probes); higher = stronger binding; sequences stand for … in GC…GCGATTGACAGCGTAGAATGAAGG
Measured PBM binding z-score, listed per entry.
Returns: the value as a bare number; no unit string appended.

- entrySequence: "GGGACGAGGGCAAGTTGATAGCAGAGTTTGATGG"
  reportedMeasurement: 1.06

Inquiry: Please report the recorded PBM binding z-score for AGTCAAAGTTCAAGACGAGGTAACGTAAAGCACG .
Reply text: 4.59

* * *

System: PPARg DBDmut IVT, anti-PPARg (DBD mutation: PPARg1 K132A/R137A, NR concentration 270 nM)
Assay: PBM binding z-score (relative to random genomic background probes); higher = stronger binding; sequences stand for … in GC…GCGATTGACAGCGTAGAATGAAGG
Measured PBM binding z-score, listed per entry.

As a guide, the following entries are already answered.
- entrySequence: "AGAAAGAGGTTATACGTAGATCAGGGAAGAAAGT"
  PBM binding z-score: 0.799
- entrySequence: "CCTACTGCGCCAAGGTCATTGATCAGTCAAAGCA"
  PBM binding z-score: -0.653

Inquiry: Please report the recorded PBM binding z-score for AGAATGAGGTTAAGATCAGTGAAACAGAATACAT .
Reply text: 0.567

* * *

Tested on: PPARg:RXRa (NR concentration 180 nM, RXRa partner concentration 90 nM)
Experiment: PBM binding z-score (relative to random genomic background probes); higher = stronger binding; sequences stand for … in GC…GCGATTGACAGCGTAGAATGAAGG
Measured PBM binding z-score, listed per entry.

As a guide, the following entries are already answered.
- entrySequence: "TCATATAGGTAGACAGGTGAAAGTCCGTAAGTTA"
  reportedMeasurement: 0.974
- entrySequence: "AGAACGAGGGCATTGAGTTGATAGCACGGGTGGC"
  reportedMeasurement: 1.02
- entrySequence: "ATCTCTAGGTAAGAAGTTCAGTGAAAGAGAGGAC"
  reportedMeasurement: 1
- entrySequence: "TCATATACGTAAATGCTAGGTGAAAGTCCGATCT"
  reportedMeasurement: 0.633
- entrySequence: "TGTCAAAGTTCAAAGGCAACGTAAGTATCCACAC"
  reportedMeasurement: 8

Inquiry: Please report the recorded PBM binding z-score for TCTGCTAGGTAAACGATGGTCAGCTAATCTGCTA .
Reply text: -0.293

Inquiry: Can you handle CGTCCAAGTTCAGCAGGTCAGTGAAAGCGACGTG next?
Reply text: 0.395

Inquiry: Can you handle ACTATTAGTTGAGACGAAGGCAACCGATAGGTTG next?
Reply text: 0.452

Inquiry: Can you handle CCTCGAAGGACAACAGGAGGTCAGAGCTGCCAGA next?
Reply text: 0.581

Inquiry: Can you handle GCTATTAGTTGAAAGGGCAATCGAATGATTCTCG next?
Reply text: 2.44

* * *

System: RARb homodimer (NR concentration 270 nM)
Assay: PBM binding z-score (relative to random genomic background probes); higher = stronger binding; sequences stand for … in GC…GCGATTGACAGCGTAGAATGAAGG
experimentalReadout: PBM binding z-score
Returns: the value as a bare number; no unit string appended.

As a guide, the following entries are already answered.
- entrySequence: "ATCTCTAGGTAAAAATAGTTCAGTGAATGCAAAT"
  PBM binding z-score: 1.13
- entrySequence: "CGTCCAAGTTCAGAGAGGTCAGTGAATGCCGAGT"
  PBM binding z-score: 4.58
- entrySequence: "TTACCCAGGTGAGCTGAGGTCGTTGATCCAACTC"
  PBM binding z-score: 1.17
- entrySequence: "CCGACTGGGGCAGAAAGGTTTCCATACCATCCGG"
  PBM binding z-score: 0.129
- entrySequence: "TCGAGTAGGTTAGTCGGGCCATTCAGCCAACATA"
  PBM binding z-score: -0.0179
- entrySequence: "ATACCAAGGTGGTCGTGAGGTCGTTGATACTAAC"
  PBM binding z-score: 1.63

Inquiry: Please report the recorded PBM binding z-score for TAGCCTAGGTCATGGGCCAGTAGACCACGCGAAC .
Reply text: 3.01

Inquiry: Can you handle CGAACTAGGACATTGACAGGACAGTGAATAGTAA next?
Reply text: 0.469

Inquiry: Can you handle TGAATGAGGTTAAAGATCGGGGAACGTGGCGTCG next?
Reply text: 0.987

Inquiry: Can you handle CGTCCAAGCTCAAAGGTCAGTGAAGAGATGACGG next?
Reply text: 4.4

Inquiry: Can you handle CCAGACAGGTGAAAGGTAACTAAGTCTGGTACGC next?
Reply text: 0.728

Inquiry: Can you handle GCTATTAGTTGAAAGGGCAACCCAATGATTCTCG next?
Reply text: 1.98

Source of measurements: the supplement of paper PMC6555819
